Data origin: ChEMBL document CHEMBL3044982

- Test system: Bemisia tabaci
- experimentalProtocol: Resistance factor, ratio of LC50 for adult female Bemisia tabaci B-biotype NJ-Imi (sweet potato whitefly) (G30) to LC50 for adult female B-type Bemisia tabaci NJ
- Type: functional
Mark TRUE for reported RatioLC50 of 100 or greater; mark FALSE for anything smaller.

Entry C/C(=N\C#N)N(C)Cc1ccc(Cl)nc1 [ACETAMIPRID] : is its RatioLC50 no less than 100?
TRUE

Consider next the molecule N#C/N=C1\SCCN1Cc1ccc(Cl)nc1 [THIACLOPRID] in the same way.
FALSE

Would you mind doing CN1COCN(Cc2cnc(Cl)s2)/C1=N\[N+](=O)[O-] [THIAMETHOXAM] as well?
TRUE

----------
- Tested on: Bemisia tabaci
- experimentalProtocol: Insecticidal activity against adult female imidacloprid-resistant Bemisia tabaci B-biotype NJ-Imi (sweet potato whitefly) (G30) in cotton leaf discs assessed as mortality treated for 10 secs prior to adult infestation measured after 72 hr by leaf-dip bioassay
- Assay type: functional
- assayContext: foliar
observedProperty: log10 of LC50 (log10 of the value in µg/mL)
Use the decimal logarithm of LC50 (µg/mL).

molecule="N#C/N=C1\\SCCN1Cc1ccc(Cl)nc1 [THIACLOPRID]" observedproperty="log10 of LC50" observedmeasurement=1.57
molecule="CN(C)C(CSS(=O)(=O)[O-])CSS(=O)(=O)O.[Na+] [MONOSULTAP]" observedproperty="log10 of LC50" observedmeasurement=2.47
molecule="CN(C)C(CSC(N)=O)CSC(N)=O [CARTAP]" observedproperty="log10 of LC50" observedmeasurement=1.24
molecule="O=[N+]([O-])/N=C1\\NCCN1Cc1ccc(Cl)nc1 [IMIDACLOPRID]" observedproperty="log10 of LC50" observedmeasurement=2.69
molecule="CN1COCN(Cc2cnc(Cl)s2)/C1=N\\[N+](=O)[O-] [THIAMETHOXAM]" observedproperty="log10 of LC50" observedmeasurement=2.46
molecule="C/C(=N\\C#N)N(C)Cc1ccc(Cl)nc1 [ACETAMIPRID]" observedproperty="log10 of LC50" observedmeasurement=2.27

Endpoint output: log10 of LC50 of CC1(C)C(C=C(Cl)Cl)C1C(=O)OC(C#N)c1cccc(Oc2ccccc2)c1 (stereo not drawn) [ALPHA-CYPERMETHRIN] . Value?
2.42

Would you kindly repeat that for CCN(Cc1ccc(Cl)nc1)/C(=C/[N+](=O)[O-])NC [NITENPYRAM] ?
1.97

----------
Reported RatioLC50 values for the following molecules.
- Test system: Bemisia tabaci
- experimentalProtocol: Resistance factor, ratio of LC50 for adult female Bemisia tabaci B-biotype NJ-Imi (sweet potato whitefly) (G30) to LC50 for adult female B-type Bemisia tabaci NJ
- Assay type: functional
Output spec: single numeric token, no unit.

Field: example entries. Status: answers known.
molecule=CN(C)C(CSC(N)=O)CSC(N)=O targetorsystem="Bemisia tabaci" observedproperty=RatioLC50 observedmeasurement=11
molecule=CN(C)C(CSS(=O)(=O)[O-])CSS(=O)(=O)O.[Na+] targetorsystem="Bemisia tabaci" observedproperty=RatioLC50 observedmeasurement=7
molecule=CCN(Cc1ccc(Cl)nc1)/C(=C/[N+](=O)[O-])NC targetorsystem="Bemisia tabaci" observedproperty=RatioLC50 observedmeasurement=94

Find the recorded RatioLC50 belonging to CC1(C)C(C=C(Cl)Cl)C1C(=O)OC(C#N)c1cccc(Oc2ccccc2)c1 (stereo not given) and report it.
1

Follow-up entry: O=[N+]([O-])/N=C1\NCCN1Cc1ccc(Cl)nc1
490
